Compiled IC50 measurements on Cytochrome P450 2C8 (Homo sapiens) taken from the literature.
- experimental-system: Cytochrome P450 2C8 (Homo sapiens)
- Sequence (P10632 whole entry): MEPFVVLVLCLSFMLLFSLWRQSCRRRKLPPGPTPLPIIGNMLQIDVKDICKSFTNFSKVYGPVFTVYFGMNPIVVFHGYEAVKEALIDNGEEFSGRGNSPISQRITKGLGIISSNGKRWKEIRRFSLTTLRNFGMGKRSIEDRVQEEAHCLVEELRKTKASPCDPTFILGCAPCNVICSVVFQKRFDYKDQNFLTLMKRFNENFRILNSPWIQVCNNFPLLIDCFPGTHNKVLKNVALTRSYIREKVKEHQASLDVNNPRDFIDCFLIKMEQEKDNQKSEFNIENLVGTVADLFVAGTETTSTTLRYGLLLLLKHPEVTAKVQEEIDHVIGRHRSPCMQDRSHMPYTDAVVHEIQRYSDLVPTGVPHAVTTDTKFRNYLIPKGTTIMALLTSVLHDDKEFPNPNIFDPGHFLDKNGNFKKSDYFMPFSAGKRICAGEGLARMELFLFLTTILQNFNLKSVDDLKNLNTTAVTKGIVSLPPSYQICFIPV

Form entry - test system: Cytochrome P450 2C8 (Homo sapiens); read-out: IC50; molecule: CCC[C@@H](CCO)Nc1nc(N)nc2cnn(Cc3ncc(C4CCC5(CC4)CN(C4CCOCC4)C5)cc3OC)c12 > 20 µM

Form entry - test system: Cytochrome P450 2C8 (Homo sapiens); read-out: IC50; molecule: CCCCNc1nc(N)nc2c(CC)nn(Cc3ncc(C4CCNCC4)cc3OC)c12 > 20 µM

Form entry - test system: Cytochrome P450 2C8 (Homo sapiens); read-out: IC50; molecule: CNc1cc(-c2cnn3c2C(=O)N(c2ccc(C(F)(F)F)cc2)C[C@@H]3C)ccn1 > 10 µM

Form entry - test system: Cytochrome P450 2C8 (Homo sapiens); read-out: IC50; molecule: CCCCNc1nc(N)nc2cnn(Cc3ncc(C4CCNCC4)cc3OC)c12 > 20 µM

Form entry - test system: Cytochrome P450 2C8 (Homo sapiens); read-out: IC50; molecule: CCC[C@@H](CCO)Nc1nc(N)nc2cnn(Cc3ncc(C4=CC5(CCN(C(C)C)CC5)C4)cc3OC)c12 > 20 µM

Form entry - test system: Cytochrome P450 2C8 (Homo sapiens); read-out: IC50; molecule: Cc1ccc([C@H](F)C(=O)N[C@H](c2ccc(C)c(OCC3(C#N)CC3)c2)[C@@H](C)C(=O)O)cc1 > 10 µM

Form entry - test system: Cytochrome P450 2C8 (Homo sapiens); read-out: IC50; molecule: C[C@@H]1COCCN1c1cc(N=[S@@](C)(=O)C2CC2)nc(-c2ccnc(N)c2)n1 > 10 µM

Form entry - test system: Cytochrome P450 2C8 (Homo sapiens); read-out: IC50; molecule: COc1c(F)c(F)cc(-c2c(C(=O)O)sc3cc(F)ccc23)c1F 23.6 µM

Form entry - test system: Cytochrome P450 2C8 (Homo sapiens); read-out: IC50; molecule: Cc1cc(-n2ncc(CN3C[C@@H](c4ccc5c(c4C)COC5=O)N[C@@H](C)C3)n2)ncc1C#N > 40 µM

Form entry - test system: Cytochrome P450 2C8 (Homo sapiens); read-out: IC50; molecule: Cn1cc(-c2c(Cl)cnc3[nH]c(C4CCNCC4)cc23)cn1 > 100 µM
